// reported pIC50 for each item listed
target: BACE1 (Homo sapiens, UniProt P56817); assay: Cellular Abeta-lowering assay; conditions: HEK293 cells stably transfected with human APP wt (APP695), Aβ40 ELISA of supernatant after 18-20 hrs
Sequence (P56817 46-501): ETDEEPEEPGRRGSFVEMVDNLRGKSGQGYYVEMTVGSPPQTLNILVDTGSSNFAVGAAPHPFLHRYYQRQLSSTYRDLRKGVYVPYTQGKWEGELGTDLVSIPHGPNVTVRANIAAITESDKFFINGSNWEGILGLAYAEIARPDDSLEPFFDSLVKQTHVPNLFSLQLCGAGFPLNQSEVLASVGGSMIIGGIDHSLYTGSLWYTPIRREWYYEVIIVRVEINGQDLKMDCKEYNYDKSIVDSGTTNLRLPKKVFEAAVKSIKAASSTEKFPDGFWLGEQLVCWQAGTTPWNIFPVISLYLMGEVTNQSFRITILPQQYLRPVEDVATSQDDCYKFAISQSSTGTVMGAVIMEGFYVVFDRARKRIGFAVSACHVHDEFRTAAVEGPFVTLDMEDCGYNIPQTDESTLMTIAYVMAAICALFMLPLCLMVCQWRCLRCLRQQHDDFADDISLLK
pIC50: −log10 of the molar value. Counter-ions that a name gives are not always drawn.

| Compound | Tested on | pIC50 |
| --- | --- | --- |
| CC1(c2cccc(NC(=O)c3ncc(Cl)cc3Cl)c2)COCC(N)=N1 (racemic) [Example 2] | BACE1 (Homo sapiens, UniProt P56817) | 7.80 |
| CC1(c2cc(NC(=O)c3ccc(-c4cnco4)cc3)ccc2F)COCC(N)=N1 (racemic) [Example 52] | BACE1 (Homo sapiens, UniProt P56817) | 5.93 |
| CC1(c2cccc(NC(=O)c3ccncn3)c2)COCC(N)=N1 (racemic) [Example 63] | BACE1 (Homo sapiens, UniProt P56817) | 6.29 |
| CCCCc1ccc(C(=O)Nc2cccc(C3(C)COCC(N)=N3)c2)nc1 (racemic) [Example 32, hydrochloride] | BACE1 (Homo sapiens, UniProt P56817) | 6.17 |
